test system: PLC-PRF-5; test: Cytotoxicity against human PLC/PRF/5 cells assessed as growth inhibition after 24 hrs by MTT assay; format: functional, cell-based; conditions: PLC-PRF-5, 24 h
property.measured: pIC50
Answers are plain numbers, as −log10 of the molar value.

Example cases with answers are listed next.
{"columns": ["entry.smiles", "pIC50"],
 "data": [
  ["COc1cc(NC(=O)c2ccc([N+](=O)[O-])o2)c2cc1Oc1ccc(cc1)C[C@H]1c3cc(c(OC)cc3CCN1C)Oc1c(OC)c(OC)cc3c1[C@H](C2)N(C)CC3", 5.60],
  ["COc1cc(NC(=O)CCCl)c2cc1Oc1ccc(cc1)C[C@H]1c3cc(c(OC)cc3CCN1C)Oc1c(OC)c(OC)cc3c1[C@H](C2)N(C)CC3", 5.20],
  ["COc1cc(NC(=O)/C=C/c2ccccc2)c2cc1Oc1ccc(cc1)C[C@H]1c3cc(c(OC)cc3CCN1C)Oc1c(OC)c(OC)cc3c1[C@H](C2)N(C)CC3", 5.01],
  ["COc1cc(NC(=O)CCCCl)c2cc1Oc1ccc(cc1)C[C@H]1c3cc(c(OC)cc3CCN1C)Oc1c(OC)c(OC)cc3c1[C@H](C2)N(C)CC3", 5.14],
  ["CCCCCC(=O)Nc1cc(OC)c2cc1C[C@H]1c3c(cc(OC)c(OC)c3Oc3cc4c(cc3OC)CCN(C)[C@H]4Cc3ccc(cc3)O2)CCN1C", 4.99]
]}

We now examine a further compound.
Q: Annotate the compound COc1cc(NC(=O)c2ccc(Br)cc2)c2cc1Oc1ccc(cc1)C[C@H]1c3cc(c(OC)cc3CCN1C)Oc1c(OC)c(OC)cc3c1[C@H](C2)N(C)CC3 with its measured pIC50.
A: 5.11

* * *

tested on: PLC-PRF-5; assay: Cytotoxicity against human PLC/PRF/5 cells assessed as growth inhibition after 24 hrs by MTT assay; format: functional, cell-based; conditions: PLC-PRF-5, 24 h
Kindly supply the reported IC50 values for the records listed here.
Answers are plain numbers, in µM.

{"columns": ["compound", "IC50 / µM"],
 "data": [
  ["COc1cc(NC(=O)C2CCCO2)c2cc1Oc1ccc(cc1)C[C@H]1c3cc(c(OC)cc3CCN1C)Oc1c(OC)c(OC)cc3c1[C@H](C2)N(C)CC3 (stereo partly drawn)", 7.32]
]}

Please report IC50 for every entry that follows.
1. COc1cc(NC(=O)c2ccccc2)c2cc1Oc1ccc(cc1)C[C@H]1c3cc(c(OC)cc3CCN1C)Oc1c(OC)c(OC)cc3c1[C@H](C2)N(C)CC3
2. COc1cc(NC(=O)c2cccs2)c2cc1Oc1ccc(cc1)C[C@H]1c3cc(c(OC)cc3CCN1C)Oc1c(OC)c(OC)cc3c1[C@H](C2)N(C)CC3

A:
9.16
9.01

* * *

test system: PLC-PRF-5; assay: Cytotoxicity against human PLC/PRF/5 cells assessed as growth inhibition after 24 hrs by MTT assay; type: functional, cell-based; settings: PLC-PRF-5, 24 h
Label Condition met when IC50 < 5 µM; otherwise Condition not met.

{"columns": ["entry.smiles", "test.target", "class.assignment"],
 "data": [
  ["COc1cc(NC(=O)OCC(C)C)c2cc1Oc1ccc(cc1)C[C@H]1c3cc(c(OC)cc3CCN1C)Oc1c(OC)c(OC)cc3c1[C@H](C2)N(C)CC3", "PLC-PRF-5", "Condition met"],
  ["COc1cc(NC(=O)C=C(C)C)c2cc1Oc1ccc(cc1)C[C@H]1c3cc(c(OC)cc3CCN1C)Oc1c(OC)c(OC)cc3c1[C@H](C2)N(C)CC3", "PLC-PRF-5", "Condition not met"],
  ["COc1ccc2cc1Oc1ccc(cc1)C[C@H]1c3cc(c(OC)cc3CCN1C)Oc1c(OC)c(OC)cc3c1[C@H](C2)N(C)CC3", "PLC-PRF-5", "Condition not met"],
  ["COc1cc(NC(=O)c2cccc(Cl)c2)c2cc1Oc1ccc(cc1)C[C@H]1c3cc(c(OC)cc3CCN1C)Oc1c(OC)c(OC)cc3c1[C@H](C2)N(C)CC3", "PLC-PRF-5", "Condition not met"],
  ["COc1cc(NC(=O)C(C)(C)C)c2cc1Oc1ccc(cc1)C[C@H]1c3cc(c(OC)cc3CCN1C)Oc1c(OC)c(OC)cc3c1[C@H](C2)N(C)CC3", "PLC-PRF-5", "Condition not met"]
]}

Q: Record COc1cc(NC(=O)c2ccccc2Cl)c2cc1Oc1ccc(cc1)C[C@H]1c3cc(c(OC)cc3CCN1C)Oc1c(OC)c(OC)cc3c1[C@H](C2)N(C)CC3 : is its IC50 strictly below 5 µM?
A: Condition not met

Q: Record COc1cc(NC(C)=O)c2cc1Oc1ccc(cc1)C[C@H]1c3cc(c(OC)cc3CCN1C)Oc1c(OC)c(OC)cc3c1[C@H](C2)N(C)CC3 : is its IC50 strictly below 5 µM?
A: Condition not met

* * *

test system: PLC-PRF-5; assay: Cytotoxicity against human PLC/PRF/5 cells assessed as growth inhibition after 24 hrs by MTT assay; assay type: functional, cell-based; conditions: PLC-PRF-5, 24 h
property.measured: IC50 (µM)
Give bare numbers, in µM.

{"columns": ["entry.smiles", "IC50 [µM]"],
 "data": [
  ["COc1cc(NC(=O)c2ccc(Cl)c(Cl)c2)c2cc1Oc1ccc(cc1)C[C@H]1c3cc(c(OC)cc3CCN1C)Oc1c(OC)c(OC)cc3c1[C@H](C2)N(C)CC3", 6.82],
  ["COc1cc(NC(=O)C(Cl)(Cl)Cl)c2cc1Oc1ccc(cc1)C[C@H]1c3cc(c(OC)cc3CCN1C)Oc1c(OC)c(OC)cc3c1[C@H](C2)N(C)CC3", 3.22],
  ["COc1cc(NC(=O)c2ccc(Cl)cc2Cl)c2cc1Oc1ccc(cc1)C[C@H]1c3cc(c(OC)cc3CCN1C)Oc1c(OC)c(OC)cc3c1[C@H](C2)N(C)CC3", 8.24],
  ["COc1ccc(C(=O)Nc2cc(OC)c3cc2C[C@H]2c4c(cc(OC)c(OC)c4Oc4cc5c(cc4OC)CCN(C)[C@H]5Cc4ccc(cc4)O3)CCN2C)cc1", 5.32]
]}

Q: Annotate the compound COc1cc(NC(=O)c2ccco2)c2cc1Oc1ccc(cc1)C[C@H]1c3cc(c(OC)cc3CCN1C)Oc1c(OC)c(OC)cc3c1[C@H](C2)N(C)CC3 with its measured IC50.
A: 1.23
